assay.procedure: small-molecule microarray binders of probe aNog, primary screen, biochemical, biotinylated probe, 635/667 nm fluorescence (AID 1115);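 also: probe is biotinylated aNog protein used at 0.15 µg/mL for 1 h at 4 C; z-score combines 667 nm fluorescence of each spot with its signal to noise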
settings: higher = more signal
The compounds listed here are annotated with their composite z-score.
In your answer, state the number alone without any accompanying words.

Some solved cases for reference:
{"compound": "COCCOC(=O)N1C(=O)[C@@]2(c3cc(C#CCC(C(=O)OC)C(=O)OC)ccc31)[C@H](C(=O)NC[C@H](O)c1ccccc1)[C@H]1C(=O)O[C@H](c3ccccc3)[C@H](c3ccccc3)N1[C@@H]2c1ccc(O)cc1", "composite z-score": -0.038}
{"compound": "O=C1C2C=CC(C(O)C=Cc3ccc([N+](=O)[O-])cc3)N(Nc3ccccc3)C2C(=O)N1c1ccccc1 (configuration not stated)", "composite z-score": -0.397}
{"compound": "CCOC(=O)C1=C[C@@H](C(C)(C)C)N(S(=O)(=O)c2ccc(C)cc2)[C@H]1c1cccc(Cl)c1", "composite z-score": -0.136}
{"compound": "[N-]=[N+]=NCc1ccccc1[C@@H]1OC(c2ccc(OCCCO)cc2)=N[C@]1(Cc1ccccc1N=[N+]=[N-])C(=O)N1CCCCC1", "composite z-score": -0.538}
{"compound": "CCCCC(=O)N(CCN1CCOCC1)[C@@H]1CC(C(=O)NCCO)=C[C@H](Oc2c(I)cc(CO)cc2OC)[C@H]1O", "composite z-score": -0.31}
{"compound": "O=c1cccc(-c2ccc(F)cc2)o1", "composite z-score": 0.0416}

Retrieve composite z-score measured for COc1ccc([Si](C)(C)[C@@H]2[C@@H](CCn3cc([C@H](O)c4ccccc4)nn3)O[C@]3(C(=O)N(c4ccccc4)c4ccccc43)[C@H]2C)cc1 and print it. 0.383

====

assayed.target: Fibroblast growth factor 2 (Homo sapiens)
assay.procedure: FGF2 binders on small-molecule microarrays, primary screen, biochemical, small-molecule microarray, 635/667 nm fluorescence (AID 1133)
settings: small-molecule microarray binding, FGF2, fluorescence 635/667; higher = more signal
assay.endpoint: composite z-score
Lab note: record the figure alone, no unit after it.

{"compound": "COc1cccc(/C=C(\\C#N)C(=O)Nc2c(C)n(C)n(-c3ccccc3)c2=O)c1", "value.observed": 0.365}
{"compound": "CN1C=C(C(=O)OCCS(C)(=O)=O)C(C(=O)OCCS(C)(=O)=O)=CC(c2ccc(CO)cc2)=CC1c1cccs1 (centres undefined)", "value.observed": 0.509}
{"compound": "[N-]=[N+]=Nc1ccccc1C[C@]1(C(=O)O)N=C(c2ccc(OCCCO)cc2)O[C@H]1c1ccccc1N=[N+]=[N-]", "value.observed": 0.0923}

Turning now to a further compound:
Give the value of composite z-score reported for the following: COc1cc(CO)cc(I)c1O[C@H]1C=C(C(=O)NCCO)C[C@@H](NCC2CCCCC2)[C@@H]1O 0.566

====

assayed.target: NADPH oxidase 4 (Homo sapiens)
assay.procedure: NOX4-dependent H2O2 signal modulators, primary screen, NOX inhibitor project, cell-based, HEK293-NOX4, tetracycline-induced, Amplex Red fluorescence (AID 1160)
settings: 45 min, higher = more signal, called active from +8 up or from −8 down
Each record gets a class by z-score: bottom range = under -0.7, center range = from -0.7 up to 0.2, top range = 0.2 and over

Reference set (5 entries):
{"compound": "CCOC(=O)C1=C[C@@H](C(C)(C)C)N(S(=O)(=O)c2ccc(C)cc2)[C@H]1c1ccccc1", "class.assignment": "center range"}
{"compound": "O=C1[C@@]23C=C(Br)[C@H](C[C@@H]2COC3)[C@@]12CO2", "class.assignment": "top range"}
{"compound": "CCCCC(=C=CC[C@H](O)c1ccc(OCCO)cc1)C[C@H](O)c1cc(Cl)cc(Cl)c1O", "class.assignment": "center range"}
{"compound": "COC(=O)[C@@]1(Cc2ccc(F)cc2)[C@H]2c3cc(C(=O)N(C)C)n(Cc4c(CO)[nH]cc(C)c4=O)c3C[C@H]2CN1C(=O)c1ccccc1", "class.assignment": "center range"}
{"compound": "O=C1C2C=CC(C(O)C=Cc3ccc([N+](=O)[O-])cc3)N(Nc3ccccc3)C2C(=O)N1c1ccccc1 (centres undefined)", "class.assignment": "bottom range"}

Please indicate the class for CO[C@H]1O[C@H](CO)[C@@H](OC(=O)Nc2cccc(F)c2)[C@H](OC(=O)Nc2ccccc2-c2ccccc2)[C@H]1OC(=O)Nc1ccccc1-c1ccccc1 based on its z-score. bottom range

// return the class label for NCCCCCNC(=O)[C@H]1C[C@H]2C(=O)N[C@@H](Cc3ccccc3)C(=O)N2[C@H]1c1ccc(O)cc1 center range

Which class is correct for the following compound? O=C(NCC(O)CO)[C@@]1(CCS(=O)(=O)c2ccccc2)COC(c2ccc(OCCCO)cc2)=N1 (some centres undefined) top range

Record COC(=O)c1c2oc(c1C(=O)OC)C(=O)N1CCC[C@H]1Cn1nncc1CN(Cc1ccccc1)C(=O)N[C@H](CO)CC2 — which class? top range

Record CC(CO)N1C(=O)[C@@H]2[C@H]3C(=O)OCC=C[C@H]3OC23C=CCN(c2ccc(Cl)cc2)C(=O)[C@@H]13 (some centres undefined) — which class? top range

Into which bin does this compound go? O=C1C2C=CC(C(O)c3cc(C(F)(F)F)cc(C(F)(F)F)c3)N(Nc3ccccc3F)C2C(=O)N1c1ccccc1 (centres undefined) bottom range
